Values compiled from patent US20260151494A1.

target: T1, human CD71 extracellular domain (human, UniProt P02786 89-760); experiment: primary ELISA; note: test concentration or dose not given here
T1 construct: also called hCD71; CD71-ECD
T1 sequence (P02786 89-760): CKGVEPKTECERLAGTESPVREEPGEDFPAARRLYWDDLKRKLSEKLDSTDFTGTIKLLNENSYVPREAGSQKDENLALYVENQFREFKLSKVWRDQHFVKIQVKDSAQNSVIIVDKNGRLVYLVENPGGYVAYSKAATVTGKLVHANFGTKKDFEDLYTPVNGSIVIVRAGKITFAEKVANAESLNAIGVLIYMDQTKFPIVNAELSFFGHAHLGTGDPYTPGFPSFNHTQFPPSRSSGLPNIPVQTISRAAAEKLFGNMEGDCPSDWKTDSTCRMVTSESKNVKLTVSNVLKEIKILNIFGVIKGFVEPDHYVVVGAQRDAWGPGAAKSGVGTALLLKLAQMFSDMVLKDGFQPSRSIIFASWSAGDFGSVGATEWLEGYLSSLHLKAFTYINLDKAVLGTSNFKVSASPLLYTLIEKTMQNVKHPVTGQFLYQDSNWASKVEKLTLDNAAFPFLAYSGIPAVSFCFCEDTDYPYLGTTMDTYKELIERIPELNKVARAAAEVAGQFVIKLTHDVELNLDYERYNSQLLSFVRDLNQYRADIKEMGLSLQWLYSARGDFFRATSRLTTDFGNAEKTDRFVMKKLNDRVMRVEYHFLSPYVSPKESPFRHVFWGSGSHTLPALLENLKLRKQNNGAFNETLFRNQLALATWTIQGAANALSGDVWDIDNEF
measurement_kind: RLU (RLU)

[
  {
    "binder": "CD71-binding FN3 domain SEQ ID NO 384 (designed binder) MLPAPKNLVVSRVTEDSARLSWTAPDAAFDSFEIDYAENRHHGEAIALLVPGSERSYDLTGLKPGTEYIVFIGGVKGGRWSQPLVASFTT",
    "measurement_kind": "RLU",
    "uom": "RLU",
    "measured_value": "2.04e+06"
  },
  {
    "binder": "CD71-binding FN3 domain SEQ ID NO 397 (designed binder) MLPAPKNLVVSRVTEDSARLSWTAPDAAFDSFIILYGEAQYDGEAIVLTVPGSERSYDLTGLKPGTEYPVDIYGVKGGPYSWPLSAIFTT",
    "measurement_kind": "RLU",
    "uom": "RLU",
    "measured_value": "1.65e+06"
  }
]
